Cited source: ChEMBL document CHEMBL1201862

Test system: UACC-62
Assay: NCI tumour cell line growth inhibition, 48 h
Calls of active or inactive are those of the source. No stated cut-off is given here; in the data, active = GI50 up to about 1.1 µM and inactive = higher. Non-standard residues stand in square brackets, D forms with d. Residues, ends and D or L forms follow the SMILES beside them.
Possible outcomes: true (active), false (inactive)

molecule	assigned category
CN1Cc2c(nc(-c3ccccc3)c[n+]2[O-])N(C)C1	false
CC(=O)NC1=C(OS(=O)(=O)c2ccc(C)cc2)CN(C)C1=O	false
N#Cc1nc(C2=C(Cl)c3ccccc3OC2)[nH]c1C#N	false
CCn1cc(C(=O)O)c(=O)c2cc(F)c(N3CCN(CN4C(=O)/C(=N\NC(=O)c5ccncc5)c5cc(Cl)ccc54)CC3)cc21	false
CN(Cc1ccccc1)C(=NC#N)N(C)Cc1ccccc1	false
N[C@@H]1C[C@H](N)c2c(Cl)sc(Cl)c21	false
O=C(CSc1nc2ccc(I)cc2c(=O)n1Cc1ccccc1)NNC(=S)Nc1ccccc1	false
CSc1cccc(NC(=O)OC2CCCCCCCCCCC2)c1	false
CC1NC(=O)CC(c2ccccc2)N(N=O)C1c1ccccc1 (configuration not stated)	false
Cc1ccc2c(c1)C(=O)C1(C2)Cc2cccc(C)c2C1=O (configuration not stated)	false
COc1ccc(-c2cc(-c3ccc(Nc4ccnc5cc(C(F)(F)F)ccc45)cc3)nc(N)c2C#N)c2ccccc12	false
COC(=O)C1=C(C(=O)OC)C2CCC1CC2=O (configuration not stated)	false
Brc1cc2c(cc1Br)CN(c1ccccc1)C2	false
CC(C)C[C@H](NC(=O)[C@H](CC(C)C)NC(=O)[C@@H](Cc1c[nH]c2ccccc12)NC(=O)[C@H](Cc1ccccc1)NC(=O)[C@@H](Cc1c[nH]c2ccccc12)NC(=O)[C@H](CCC(N)=O)NC(=O)[C@H](CCC(N)=O)NC(=O)[C@H]1CCCN1C(=O)[C@@H](N)CCCCN)C(N)=O (H-K[dP]QQ[dW]F[dW]LL-NH2)	false
OC(CCN1CCN(CCOC(c2ccccc2)c2ccccc2)CC1)c1ccccc1 (configuration not stated)	false
Nc1cc2c(c3ccccc13)C(CCl)CN2C(=O)c1cc2cc(NC(=O)Nc3ccc4[nH]c(C(=O)N5CC(CCl)c6c5cc(N)c5ccccc65)cc4c3)ccc2[nH]1 (configuration not stated)	true
COc1cccc(/C=N/NC(=O)CN(C)C)c1O	false

###

This listing pairs molecules with measured GI50.
Test system: SK-MEL-2
Experiment: NCI tumour cell line growth inhibition, 48 h
Active and inactive are the calls of the source. Cut-off read from the data, not from the text of the source: active = GI50 up to about 1.1 µM and inactive = higher.

molecule	target system	GI50
Cc1ccccc1C1OC(=O)c2ccc3ccccc3c21 (stereo unspecified)	SK-MEL-2	2.25 µM (inactive)
CC(=O)Oc1ccc(N2C(=O)C3c4[nH]c5ccccc5c4C4CCC(C(C)(C)C)CC4C3C2=O)cc1 (stereo unspecified)	SK-MEL-2	5.13 µM (inactive)
O=C1CCCc2cc3c(cc21)CC1(Cc2ccccc2C1)C3	SK-MEL-2	15 µM (inactive)
OC(CCN1CCN(CCOC(c2ccccc2)c2ccccc2)CC1)c1ccccc1 (stereo unspecified)	SK-MEL-2	15.8 µM (inactive)
CNC(=O)OC(COC)CN1CCN(c2ccccc2C)CC1 (stereo unspecified)	SK-MEL-2	> 10 µM (inactive)
COC1CCC(=O)N1CN(C(C)=O)c1ccc(C)cc1 (stereo unspecified)	SK-MEL-2	> 100 µM (inactive)
O=C1NC(=O)C2C(=O)NC(=O)C1C2(c1ccccc1)c1ccc(Cl)cc1 (stereo unspecified)	SK-MEL-2	> 100 µM (inactive)
CCCCCCCCCCCC[C@H](O)[C@H]1CC[C@H]([C@H](O)CCCC[C@H](O)CCCCC[C@@H](O)CC2=C[C@H](C)OC2=O)O1	SK-MEL-2	3.05 µM (inactive)
Cc1cn(CC2=NCC(O)CN2)c(=O)[nH]c1=O (stereo unspecified)	SK-MEL-2	> 100 µM (inactive)
Cc1ccc(S(=O)(=O)N2CCSCCN(S(=O)(=O)c3ccc(C)cc3)CCN(S(=O)(=O)c3ccc(C)cc3)CC2)cc1	SK-MEL-2	25.9 µM (inactive)
COC(=O)C1=C(C)NC(C)=C(C(=O)OC)C1c1cccc(/[N+]([O-])=C/c2ccccc2)c1	SK-MEL-2	75 µM (inactive)
CCOC(=O)N(C)C(=C(F)F)C(F)(F)F	SK-MEL-2	16 µM (inactive)
CCNC(C)Cc1ccccc1 (stereo unspecified)	SK-MEL-2	> 100 µM (inactive)
O=C(C/C(=N\NC(=O)C[n+]1ccccc1)C(=O)Nc1nc2ccc([N+](=O)[O-])cc2s1)CC(c1ccccc1)c1c(O)c2ccccc2oc1=O (stereo unspecified)	SK-MEL-2	> 100 µM (inactive)
CC(C)Oc1c(O)c2c3c(oc(=O)n3C=CC2c2ccccc2)c1OC(C)C (stereo unspecified)	SK-MEL-2	15.7 µM (inactive)
CCOC(=O)C1=CC(C)(C(=O)OCC)Nc2c(nc(OC)[nH]c2=O)N1 (stereo unspecified)	SK-MEL-2	> 10 µM (inactive)
CCOC(=O)N1C2C=C(C)C(C3C(C)C(=O)N31)N(C(=O)c1ccccc1)O2 (stereo unspecified)	SK-MEL-2	> 100 µM (inactive)
N#Cc1ccccc1NC(=O)C(=O)c1c(O)c2ccccc2oc1=O	SK-MEL-2	> 100 µM (inactive)
C/C(=C\COc1ccc2ccc(=O)oc2c1)CCC(=O)C(C)(C)O	SK-MEL-2	39.1 µM (inactive)
Cc1ccsc1/C=N/Nc1nncc2ccccc12	SK-MEL-2	14.1 µM (inactive)
CCCCN1C(=O)CS/C1=N/Nc1nc2c([nH]1)c(=O)n(C)c(=O)n2C	SK-MEL-2	30 µM (inactive)
CN(Cc1ccccc1)C(=NC#N)N(C)Cc1ccccc1	SK-MEL-2	> 100 µM (inactive)
C[N+](C)(C)C.FC(F)(F)C1(C(F)(F)F)O[SiH-]2(OC(C(F)(F)F)(C(F)(F)F)c3ccccc32)c2ccccc21	SK-MEL-2	17.7 µM (inactive)
Cc1nc(=O)n2c(C)n[nH]c2c1C(=O)O	SK-MEL-2	> 100 µM (inactive)
COc1cc2nncc(SCc3ccc(Cl)c(Cl)c3)c2cc1OC	SK-MEL-2	> 100 µM (inactive)
N#C/C(C(=O)Nc1ccc(Cl)cc1)=C(/N)N1CCCC1	SK-MEL-2	> 100 µM (inactive)
CCC1(C(=O)OC(C)(C)C)OC12C(C)CCCC2C (stereo unspecified)	SK-MEL-2	44.8 µM (inactive)
C#C/C=C\CCCC/C=C\C#CC#CCCCC#CC#C[C@H](COS(=O)(=O)O)OS(=O)(=O)O	SK-MEL-2	> 100 µM (inactive)
CC1(C)N=C(N)N=C(N)N1c1cccc(CSc2ccccc2)c1	SK-MEL-2	18.4 µM (inactive)
Cc1ccc(C(=O)Nc2ccc(S(=O)(=O)O)c3cc(S(=O)(=O)O)cc(S(=O)(=O)O)c23)cc1NC(=O)Nc1cc(C(=O)Nc2ccc(S(=O)(=O)O)c3cc(S(=O)(=O)O)cc(S(=O)(=O)O)c23)ccc1C	SK-MEL-2	> 87.5 µM (inactive)
CC1C(=O)O[B-]2(c3ccccc3)Oc3ccccc3C=[N+]12 (stereo unspecified)	SK-MEL-2	> 100 µM (inactive)
N[C@@H]1c2c(Br)sc(Br)c2[C@H](O)[C@@H]1O	SK-MEL-2	> 100 µM (inactive)
O=[N+]([O-])c1cccc2nc3ccccc3c(NCCCNc3c4ccccc4nc4cccc([N+](=O)[O-])c34)c12	SK-MEL-2	0.035 µM (active)
O=c1[nH]c2ccsc2c(=O)n1COCc1ccccc1	SK-MEL-2	> 100 µM (inactive)
CC1(C)CC(=O)C(/C(=N/NC(=S)NN)C(=O)Nc2nc3ccc([N+](=O)[O-])cc3s2)C(=O)C1	SK-MEL-2	> 100 µM (inactive)
Brc1cc2c(cc1Br)CN(c1ccccc1)C2	SK-MEL-2	> 100 µM (inactive)
